tested_on: Bcl-2 protein (Recombinant Human Bcl-2 Protein) (Homo sapiens, UniProt P10415)
Construct: purchased Novus NBP2-34889
Sequence (P10415 whole entry): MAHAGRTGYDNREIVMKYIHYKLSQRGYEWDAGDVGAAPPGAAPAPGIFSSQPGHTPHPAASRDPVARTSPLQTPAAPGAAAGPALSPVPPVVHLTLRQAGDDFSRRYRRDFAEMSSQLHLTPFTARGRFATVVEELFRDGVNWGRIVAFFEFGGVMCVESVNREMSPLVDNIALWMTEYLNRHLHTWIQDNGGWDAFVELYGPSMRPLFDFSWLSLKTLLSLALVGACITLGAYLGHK
method_summary: Binding evaluation of mixture library compounds to Bcl-2 using AS-MS (affinity selection mass spectrometry)
experimental_context: n = 2
Method: […] Then, analysis of the 1200 compounds was carried out for samples A, B, and C with TraceFinder 5.1 (Thermo Fisher Scientific) and CHANCE Software (in-house), and the ASMS Ratio (%) was calculated according to the following calculation formula. […]
Consider the following compounds; for each one, report its ASMS ratio (%).
Quick reminder: number only, in %, skip the unit.

Quick check: ASMS ratio (%) of CCOc1cccc(-c2ccc(CN3CCN(c4ccc(C(=O)NS(=O)(=O)C(C)(C)C)nn4)CC3)c(CC)c2)c1 ? 33.9

Item: CCOc1cncc(-c2ccccc2CCC(=O)N2CCN(c3ccc(C(=O)NS(=O)(=O)CCC(F)(F)F)cc3)CC2)c1 1.0

Item: CCOc1cccc(-c2cc(CN3CCN(c4ccc(C(=O)NS(=O)(=O)c5ccc(NCCSc6ccccc6)c(C(F)(F)F)c5)nn4)CC3)cc(OCC)c2)c1 −8.8

Item: CCOc1cncc(-c2cc(CN3CCN(c4ccc(C(=O)NS(C)(=O)=O)cc4)CC3)cc(OCC)c2)c1 0.0

---

tested_on: Bcl-2 protein (Recombinant Human Bcl-2 Protein) (Homo sapiens, UniProt P10415)
Construct: purchased Novus NBP2-34889
method_summary: Binding evaluation of mixture library compounds to Bcl-2 using AS-MS (affinity selection mass spectrometry)
experimental_context: first value in parentheses; (A−C)/B×100; 1200-compound mixture, Bcl-2 20 μM
Consider the following compounds; for each one, report its ASMS ratio (%).
Quick reminder: number only, in %, skip the unit.

Provide the documented ASMS ratio (%) with Bcl-2 protein (Recombinant Human Bcl-2 Protein) (Homo sapiens, UniProt P10415) as the system for CCOc1cncc(-c2ccccc2CN2CCN(c3ccc(C(=O)NS(=O)(=O)c4ccc(NCCSc5ccccc5)c([N+](=O)[O-])c4)cc3)CC2)c1 [B2Q046-01] 20.3

Item: CCOc1cncc(-c2ccccc2CCC(=O)N2CCN(c3ccc(C(=O)NS(=O)(=O)c4ccc(NCCSc5ccccc5)c([N+](=O)[O-])c4)nn3)CC2)c1 [B2Q012-01] 21.4

Item: CCOc1cncc(-c2ccc(CN3CCN(c4ccc(C(=O)NS(=O)(=O)c5ccc(NCCSc6ccccc6)c([N+](=O)[O-])c5)cc4)CC3)c(OC)c2)c1 [B2Q054-01] 44.1

Item: CCOc1cccc(-c2ccccc2CN2CCN(c3ccc(C(=O)NS(=O)(=O)c4ccc(NCCSc5ccccc5)c([N+](=O)[O-])c4)cc3)CC2)c1 [B2Q045-01] 49.9

Item: CCOc1cccc(-c2ccc(C(C)N3CCN(c4ccc(C(=O)NS(=O)(=O)c5ccc(NCCSc6ccccc6)c([N+](=O)[O-])c5)cc4)CC3)cc2)c1 (stereo not shown) [B2Q097-01] 142.5

Item: CCOc1cccc(-c2ccc(CN3CCN(c4ccc(C(=O)NS(=O)(=O)c5ccc(NCCSc6ccccc6)c([N+](=O)[O-])c5)cc4)CC3)cc2C)c1 [B2Q047-01] 142.5

Item: CCOc1cccc(-c2ccc(CN3CCN(c4ccc(C(=O)NCC56CC7CC(CC(C7)C5)C6)nn4)CC3)c(CC)c2)c1 [B1A075-01] 31.3

Item: CCOc1cncc(-c2ccc(CN3CCN(c4ccc(C(=O)NS(=O)(=O)c5ccc(NCCSc6ccccc6)c([N+](=O)[O-])c5)cc4)CC3)cc2C)c1 [B2Q048-01] 61.6

Item: CCOc1cncc(-c2ccc(CN3CCN(c4ccc(C(=O)NS(=O)(=O)c5ccc(NCCSc6ccccc6)c([N+](=O)[O-])c5)cc4)CC3)c3ccccc23)c1 [B2Q066-01] 40.7

Item: CCOc1cccc(-c2ccc(CN3CCN(c4ccc(C(=O)NS(=O)(=O)c5ccc(NCCSc6ccccc6)c([N+](=O)[O-])c5)cc4)CC3)c(OC)c2)c1 [B2Q053-01] 22.4

Item: CCOc1cccc(-c2ccc(CN3CCN(c4ccc(C(=O)N(C)CC56CC7CC(CC(C7)C5)C6)nn4)CC3)cc2C)c1 [B3A073-01] 31.3

Item: CCOc1cncc(-c2ccc(CN3CCN(c4ccc(C(=O)NS(=O)(=O)c5ccc(NCCSc6ccccc6)c(C(F)(F)F)c5)nn4)CC3)cc2C)c1 [B2R074-01] 22.4

Item: CCOc1cncc(-c2ccc(C(C)N3CCN(c4ccc(C(=O)NS(=O)(=O)c5ccc(NCCSc6ccccc6)c([N+](=O)[O-])c5)cc4)CC3)cc2)c1 (stereo not shown) [B2Q098-01] 61.6

---

tested_on: Bcl-2 protein (Recombinant Human Bcl-2 Protein) (Homo sapiens)
Construct: purchased Novus NBP2-34889
method_summary: Binding evaluation of mixture library compounds to Bcl-2 using AS-MS (affinity selection mass spectrometry)
experimental_context: AS-MS, mixture library, Bcl-2; replicate n = 1; ASMS Ratio(%)=(A−C)/B×100
Consider the following compounds; for each one, report its ASMS ratio (%) n = 1.
Quick reminder: number only, in %, skip the unit.

Quick check: ASMS ratio (%) n = 1 of CCOc1cccc(-c2cc(CN3CCN(c4ccc(C(=O)NS(=O)(=O)CC56CC7CC(CC(C7)C5)C6)cc4)CC3)cc(OCC)c2)c1 ? 5.8

Item: CCOc1cncc(-c2ccccc2CCC(=O)N2CCN(c3ccc(C(=O)NS(=O)(=O)CC45CC6CC(CC(C6)C4)C5)cc3)CC2)c1 1.6

Item: CCOc1cncc(-c2ccc(CN3CCN(c4ccc(C(=O)N(CC)CC)nn4)CC3)cc2C)c1 0.0

Item: CCOc1cccc(-c2cnn(-c3cc(C(=O)N4CCN(c5ccc(C(=O)NS(=O)(=O)CC67CC8CC(CC(C8)C6)C7)nn5)CC4)cc(C(F)(F)F)c3)c2)c1 14.4

Item: CCOc1cncc(-c2cc(CN3CCN(c4ccc(C(=O)NS(=O)(=O)c5ccc(NCCSc6ccccc6)c([N+](=O)[O-])c5)cc4)CC3)cc(C(F)(F)F)c2)c1 9.4

Item: CCOc1cncc(-c2ccc(C(=O)N3CCN(c4ccc(C(=O)NS(C)(=O)=O)nn4)CC3)cc2F)c1 0.0

Item: CCOc1cncc(-c2csc(C(=O)N3CCN(c4ccc(C(=O)NS(=O)(=O)c5ccc(NCCSc6ccccc6)c([N+](=O)[O-])c5)nn4)CC3)c2)c1 24.5

Item: CCOc1cccc(-c2cc(CN3CCN(c4ccc(C(=O)NS(=O)(=O)CC56CC7CC(CC(C7)C5)C6)nn4)CC3)cc(OC(C)C)c2)c1 10.3

Item: CCOc1cncc(-c2cc(CN3CCN(c4ccc(C(=O)NS(=O)(=O)CC56CC7CC(CC(C7)C5)C6)cc4)CC3)cc(OCC)c2)c1 −3.9

Item: CCOc1cccc(C#Cc2ccccc2CN2CCN(c3ccc(C(=O)NS(=O)(=O)CC45CC6CC(CC(C6)C4)C5)cc3)CC2)c1 4.6

Item: CCOc1cncc(-c2ccc(C(C)N3CCN(c4ccc(C(=O)N(CC)CC)cc4)CC3)c(F)c2)c1 (stereo not shown) 0.0

Item: CCOc1cncc(C#Cc2cc(C(=O)N3CCN(c4ccc(C(=O)NS(C)(=O)=O)nn4)CC3)cc(C(F)(F)F)c2)c1 0.0

Item: CCOc1cccc(C#Cc2ccccc2C(=O)N2CCN(c3ccc(C(=O)NS(=O)(=O)c4ccc(NCCSc5ccccc5)c([N+](=O)[O-])c4)nn3)CC2)c1 4.2

Item: CCOc1cncc(-c2ccc(CN3CCN(c4ccc(C(=O)NS(=O)(=O)c5ccc(NCCSc6ccccc6)c([N+](=O)[O-])c5)cc4)CC3)c(OC)c2)c1 44.1

Item: CCOc1cccc(-c2csc(C(=O)N3CCN(c4ccc(C(=O)NS(=O)(=O)CC56CC7CC(CC(C7)C5)C6)nn4)CC3)c2)c1 0.0

Item: CCOc1cccc(C#Cc2cc(C(=O)N3CCN(c4ccc(C(=O)NS(C)(=O)=O)nn4)CC3)cc(C(F)(F)F)c2)c1 0.0

Item: CCOc1cccc(-c2ccc(CN3CCN(c4ccc(C(=O)NS(=O)(=O)c5ccc(NCCSc6ccccc6)c([N+](=O)[O-])c5)nn4)CC3)c3ccccc23)c1 17.2

Item: CCOc1cccc(C#Cc2ccccc2C(=O)N2CCN(c3ccc(C(=O)NS(C)(=O)=O)nn3)CC2)c1 −1.6

Item: CCOc1cccc(-c2cc(CN3CCN(c4ccc(C(=O)N(CC)CC)cc4)CC3)cc(OC(F)(F)F)c2)c1 4.5

Item: CCOc1cncc(-c2cnn(-c3cc(C(=O)N4CCN(c5ccc(C(=O)NS(=O)(=O)c6ccc(NCCSc7ccccc7)c([N+](=O)[O-])c6)nn5)CC4)cc(C(F)(F)F)c3)c2)c1 13.8

Item: CCOc1cncc(-c2ccc(CN3CCN(c4ccc(C(=O)NS(=O)(=O)c5ccc(NCCSc6ccccc6)c([N+](=O)[O-])c5)nn4)CC3)cc2F)c1 15.6

Item: CCOc1cncc(-c2ccc(C(=O)N3CCN(c4ccc(C(=O)NS(=O)(=O)c5ccc(NCCSc6ccccc6)c([N+](=O)[O-])c5)nn4)CC3)c3ccccc23)c1 9.3

Item: CCOc1cncc(-c2ccc(C(=O)N3CCN(c4ccc(C(=O)NS(=O)(=O)c5ccc(NCCSc6ccccc6)c([N+](=O)[O-])c5)cc4)CC3)cc2C)c1 4.4

Item: CCOc1cccc(-c2ccc(CN3CCN(c4ccc(C(=O)NS(=O)(=O)c5ccc(NCCSc6ccccc6)c([N+](=O)[O-])c5)cc4)CC3)cc2C)c1 142.5

Item: CCOc1cccc(-c2ccc(C(=O)N3CCN(c4ccc(C(=O)NS(C)(=O)=O)nn4)CC3)cc2F)c1 0.0
